Origin of the recorded values: BigSolDB 2.1

Conditions: in isopropanol, 318.15 K
value.type: solubility (mole fraction)
Lab note: write the figure by itself, no unit.

Query string: Query: solubility (mole fraction); subject: "CS(=O)(=O)c1ccc(C=O)cc1"
Result string: 0.00139

###

Details: in acetonitrile, 298.15 K
value.type: solubility (mole fraction)
Lab note: write the figure by itself, no unit.

Query string: Query: solubility (mole fraction); subject: "CS(=O)(=O)c1ccc(C=O)cc1"
Result string: 0.0111

###

Settings: in acetone, 315.65 K
value.type: solubility (mole fraction)
Lab note: write the figure by itself, no unit.

Query string: Query: solubility (mole fraction); subject: "CS(=O)(=O)c1ccc(C=O)cc1"
Result string: 0.0245

###

Details: in n-butanol, 295.65 K
value.type: solubility (mole fraction)
Lab note: write the figure by itself, no unit.

Query string: Query: solubility (mole fraction); subject: "CS(=O)(=O)c1ccc(C=O)cc1"
Result string: 0.00102

###

Details: in ethanol, 298.15 K
value.type: solubility (mole fraction)
Lab note: write the figure by itself, no unit.

Query string: Query: solubility (mole fraction); subject: "CS(=O)(=O)c1ccc(C=O)cc1"
Result string: 0.00158

###

Conditions: in n-propanol, 308.15 K
value.type: solubility (mole fraction)
Lab note: write the figure by itself, no unit.

Query string: Query: solubility (mole fraction); subject: "CS(=O)(=O)c1ccc(C=O)cc1"
Result string: 0.00157

###

Settings: in toluene, 310.65 K
value.type: solubility (mole fraction)
Lab note: write the figure by itself, no unit.

Query string: Query: solubility (mole fraction); subject: "CS(=O)(=O)c1ccc(C=O)cc1"
Result string: 0.0025

###

Details: in ethanol, 283.15 K
value.type: solubility (mole fraction)
Lab note: write the figure by itself, no unit.

Query string: Query: solubility (mole fraction); subject: "CS(=O)(=O)c1ccc(C=O)cc1"
Result string: 0.000869

###

Settings: in isopropanol, 300.65 K
value.type: solubility (mole fraction)

Query string: Query: solubility (mole fraction); subject: "CS(=O)(=O)c1ccc(C=O)cc1"
Result string: 0.000629

###

Conditions: in acetic acid, 298.15 K
value.type: solubility (mole fraction)
Lab note: write the figure by itself, no unit.

Query string: Query: solubility (mole fraction); subject: "CS(=O)(=O)c1ccc(C=O)cc1"
Result string: 0.00598

###

Details: in toluene, 315.65 K
value.type: solubility (mole fraction)

Query string: Query: solubility (mole fraction); subject: "CS(=O)(=O)c1ccc(C=O)cc1"
Result string: 0.00308

###

Settings: in methanol, 285.65 K
value.type: solubility (mole fraction)
Lab note: write the figure by itself, no unit.

Query string: Query: solubility (mole fraction); subject: "CS(=O)(=O)c1ccc(C=O)cc1"
Result string: 0.0022

###

Settings: in isopropanol, 283.15 K
value.type: solubility (mole fraction)
Lab note: write the figure by itself, no unit.

Query string: Query: solubility (mole fraction); subject: "CS(=O)(=O)c1ccc(C=O)cc1"
Result string: 0.000288

###

Details: in n-propanol, 305.65 K
value.type: solubility (mole fraction)

Query string: Query: solubility (mole fraction); subject: "CS(=O)(=O)c1ccc(C=O)cc1"
Result string: 0.00141

###

Details: in methanol, 308.15 K
value.type: solubility (mole fraction)
Lab note: write the figure by itself, no unit.

Query string: Query: solubility (mole fraction); subject: "CS(=O)(=O)c1ccc(C=O)cc1"
Result string: 0.00518

###

Details: in n-propanol, 290.65 K
value.type: solubility (mole fraction)
Lab note: write the figure by itself, no unit.

Query string: Query: solubility (mole fraction); subject: "CS(=O)(=O)c1ccc(C=O)cc1"
Result string: 0.000742

###

Details: in n-propanol, 318.15 K
value.type: solubility (mole fraction)
Lab note: write the figure by itself, no unit.

Query string: Query: solubility (mole fraction); subject: "CS(=O)(=O)c1ccc(C=O)cc1"
Result string: 0.00241

###

Details: in isopropanol, 315.65 K
value.type: solubility (mole fraction)
Lab note: write the figure by itself, no unit.

Query string: Query: solubility (mole fraction); subject: "CS(=O)(=O)c1ccc(C=O)cc1"
Result string: 0.00125

###

Settings: in acetone, 283.15 K
value.type: solubility (mole fraction)
Lab note: write the figure by itself, no unit.

Query string: Query: solubility (mole fraction); subject: "CS(=O)(=O)c1ccc(C=O)cc1"
Result string: 0.00798

###

Settings: in toluene, 308.15 K
value.type: solubility (mole fraction)
Lab note: write the figure by itself, no unit.

Query string: Query: solubility (mole fraction); subject: "CS(=O)(=O)c1ccc(C=O)cc1"
Result string: 0.00224

###

Details: in acetone, 293.15 K
value.type: solubility (mole fraction)
Lab note: write the figure by itself, no unit.

Query string: Query: solubility (mole fraction); subject: "CS(=O)(=O)c1ccc(C=O)cc1"
Result string: 0.0114

###

Details: in ethanol, 310.65 K
value.type: solubility (mole fraction)
Lab note: write the figure by itself, no unit.

Query string: Query: solubility (mole fraction); subject: "CS(=O)(=O)c1ccc(C=O)cc1"
Result string: 0.00258

###

Settings: in acetone, 288.15 K
value.type: solubility (mole fraction)
Lab note: write the figure by itself, no unit.

Query string: Query: solubility (mole fraction); subject: "CS(=O)(=O)c1ccc(C=O)cc1"
Result string: 0.00937

###

Conditions: in isopropanol, 288.15 K
value.type: solubility (mole fraction)
Lab note: write the figure by itself, no unit.

Query string: Query: solubility (mole fraction); subject: "CS(=O)(=O)c1ccc(C=O)cc1"
Result string: 0.000355

###

Details: in acetone, 300.65 K
value.type: solubility (mole fraction)

Query string: Query: solubility (mole fraction); subject: "CS(=O)(=O)c1ccc(C=O)cc1"
Result string: 0.0148

###

Conditions: in toluene, 318.15 K
value.type: solubility (mole fraction)
Lab note: write the figure by itself, no unit.

Query string: Query: solubility (mole fraction); subject: "CS(=O)(=O)c1ccc(C=O)cc1"
Result string: 0.0034

###

Settings: in n-propanol, 295.65 K
value.type: solubility (mole fraction)
Lab note: write the figure by itself, no unit.

Query string: Query: solubility (mole fraction); subject: "CS(=O)(=O)c1ccc(C=O)cc1"
Result string: 0.000933

###

Settings: in n-propanol, 315.65 K
value.type: solubility (mole fraction)
Lab note: write the figure by itself, no unit.

Query string: Query: solubility (mole fraction); subject: "CS(=O)(=O)c1ccc(C=O)cc1"
Result string: 0.00216

###

Details: in isopropanol, 290.65 K
value.type: solubility (mole fraction)
Lab note: write the figure by itself, no unit.

Query string: Query: solubility (mole fraction); subject: "CS(=O)(=O)c1ccc(C=O)cc1"
Result string: 0.000405

###

Conditions: in methanol, 313.15 K
value.type: solubility (mole fraction)
Lab note: write the figure by itself, no unit.

Query string: Query: solubility (mole fraction); subject: "CS(=O)(=O)c1ccc(C=O)cc1"
Result string: 0.00623

###

Details: in acetonitrile, 290.65 K
value.type: solubility (mole fraction)
Lab note: write the figure by itself, no unit.

Query string: Query: solubility (mole fraction); subject: "CS(=O)(=O)c1ccc(C=O)cc1"
Result string: 0.00814

###

Conditions: in n-butanol, 315.65 K
value.type: solubility (mole fraction)
Lab note: write the figure by itself, no unit.

Query string: Query: solubility (mole fraction); subject: "CS(=O)(=O)c1ccc(C=O)cc1"
Result string: 0.00232

###

Details: in acetone, 285.65 K
value.type: solubility (mole fraction)
Lab note: write the figure by itself, no unit.

Query string: Query: solubility (mole fraction); subject: "CS(=O)(=O)c1ccc(C=O)cc1"
Result string: 0.00872

###

Details: in methanol, 283.15 K
value.type: solubility (mole fraction)
Lab note: write the figure by itself, no unit.

Query string: Query: solubility (mole fraction); subject: "CS(=O)(=O)c1ccc(C=O)cc1"
Result string: 0.00206

###

Settings: in n-propanol, 293.15 K
value.type: solubility (mole fraction)
Lab note: write the figure by itself, no unit.

Query string: Query: solubility (mole fraction); subject: "CS(=O)(=O)c1ccc(C=O)cc1"
Result string: 0.000835

###

Conditions: in n-propanol, 298.15 K
value.type: solubility (mole fraction)
Lab note: write the figure by itself, no unit.

Query string: Query: solubility (mole fraction); subject: "CS(=O)(=O)c1ccc(C=O)cc1"
Result string: 0.00105
